system: RPMI-8226; test: NCI tumour cell line growth inhibition, 48 h
Active and inactive are the calls of the source. Cut-off read from the data, not from the text of the source: active = GI50 up to about 1.1 µM and inactive = higher.
measured attribute: GI50

compound | GI50
CC(=O)Nc1ccc(C(=O)NN2C(=O)C(Cl)C2c2ccc(Cl)cc2)cc1 (stereo unspecified) | > 100 µM (inactive)

Which GI50 is reported for this compound? `COC(=O)[C@@H](NC(=O)N(Cc1ccccc1)C[C@H](CC(C)C)NC(=O)[C@@H](NC(=O)OC(C)(C)C)C(C)C)C(C)C`
> 100 µM (inactive)

Which GI50 is reported for this compound? `Cc1cc2c(C)nn(Cc3ccccc3)c2c(C(=O)O)c1C`
> 100 µM (inactive)

Which GI50 is reported for this compound? `CC1=C(C(=O)Nc2ccccc2)C(c2ccc3c(c2)OCO3)C(C(=O)Nc2ccccc2)=C(C)N1`
23.1 µM (inactive)

Which GI50 is reported for this compound? `Cc1cc(S(=O)(=O)Nc2nc(N)n[nH]2)c(Cl)cc1Cl`
> 10 µM (inactive)

Which GI50 is reported for this compound? `Cc1ccc(/N=N/c2c(O)c(C(=O)Nc3ccccc3)cc3ccccc23)c([N+](=O)[O-])c1`
> 100 µM (inactive)

Which GI50 is reported for this compound? CCOC(=O)C1(Cc2ccc3ccccc3c2)CCCCC(=O)N1 (stereo unspecified)
3.78 µM (inactive)

Which GI50 is reported for this compound? `CC(=O)Oc1cccc2c(/C=N/NC(N)=S)ncc(C)c12`
1.56 µM (inactive)

Which GI50 is reported for this compound? `COC(=O)c1onc(-c2c(OC)cc(OC)cc2OC)c1C(=O)OC`
> 100 µM (inactive)

Which GI50 is reported for this compound? `O=C(O)CCC(=O)N1C/C(=C\c2ccccc2)C(=O)/C(=C/c2ccccc2)C1`
2.42 µM (inactive)

Which GI50 is reported for this compound? `Cn1cc(C(=O)c2ccccc2)ccc1=O`
> 100 µM (inactive)

Entry source: ChEMBL document CHEMBL1201862
